- Tested on: Primary human epidermal keratinocytes, HeKa
- assay method text: HeKa cytokine release (IL-8) assay
- Format: cell-based
- particulars: 6 h, read-out: HeKa cytokine release (IL-8) Rel EC50 range
pEC50: −log10 of the molar value.

>  <compound>
CNc1cccc(C)c1C(=O)O[C@H]1C(C)=C[C@]23C(=O)[C@@H](C=C(CO)[C@@H](O)[C@]12O)[C@H]1[C@@H](C[C@H]3C)C1(C)C [Compound 339]

>  <pEC50>
> 7.70

$$$$
>  <compound>
COc1cccc(NCc2ccccc2)c1C(=O)O[C@H]1C(C)=C[C@]23C(=O)[C@@H](C=C(CO)[C@@H](O)[C@]12O)[C@H]1[C@@H](C[C@H]3C)C1(C)C [Compound 333]

>  <pEC50>
> 7.70

$$$$
>  <compound>
COc1cccc(N)c1C(=O)O[C@H]1C(C)=C[C@]23C(=O)[C@@H](C=C(CO)[C@@H](O)[C@]12O)[C@H]1[C@@H](C[C@H]3C)C1(C)C [Compound 334, Ingenol 3-(2-amino-6-methoxy-benzoate)]

>  <pEC50>
7.00 to 7.70

$$$$
